This collection of values is drawn from patent US20230265116A1.

# ASSAYED_TARGET: EGFR L858R/T790M/C797S (BaF3-LTC cells) (Homo sapiens, UniProt P00533, C797S/L858R/T790M)
# Construct: expressed in transfected cells; host or cells: BaF3
# Sequence (P00533 25-1210 T790M/C797S/L858R): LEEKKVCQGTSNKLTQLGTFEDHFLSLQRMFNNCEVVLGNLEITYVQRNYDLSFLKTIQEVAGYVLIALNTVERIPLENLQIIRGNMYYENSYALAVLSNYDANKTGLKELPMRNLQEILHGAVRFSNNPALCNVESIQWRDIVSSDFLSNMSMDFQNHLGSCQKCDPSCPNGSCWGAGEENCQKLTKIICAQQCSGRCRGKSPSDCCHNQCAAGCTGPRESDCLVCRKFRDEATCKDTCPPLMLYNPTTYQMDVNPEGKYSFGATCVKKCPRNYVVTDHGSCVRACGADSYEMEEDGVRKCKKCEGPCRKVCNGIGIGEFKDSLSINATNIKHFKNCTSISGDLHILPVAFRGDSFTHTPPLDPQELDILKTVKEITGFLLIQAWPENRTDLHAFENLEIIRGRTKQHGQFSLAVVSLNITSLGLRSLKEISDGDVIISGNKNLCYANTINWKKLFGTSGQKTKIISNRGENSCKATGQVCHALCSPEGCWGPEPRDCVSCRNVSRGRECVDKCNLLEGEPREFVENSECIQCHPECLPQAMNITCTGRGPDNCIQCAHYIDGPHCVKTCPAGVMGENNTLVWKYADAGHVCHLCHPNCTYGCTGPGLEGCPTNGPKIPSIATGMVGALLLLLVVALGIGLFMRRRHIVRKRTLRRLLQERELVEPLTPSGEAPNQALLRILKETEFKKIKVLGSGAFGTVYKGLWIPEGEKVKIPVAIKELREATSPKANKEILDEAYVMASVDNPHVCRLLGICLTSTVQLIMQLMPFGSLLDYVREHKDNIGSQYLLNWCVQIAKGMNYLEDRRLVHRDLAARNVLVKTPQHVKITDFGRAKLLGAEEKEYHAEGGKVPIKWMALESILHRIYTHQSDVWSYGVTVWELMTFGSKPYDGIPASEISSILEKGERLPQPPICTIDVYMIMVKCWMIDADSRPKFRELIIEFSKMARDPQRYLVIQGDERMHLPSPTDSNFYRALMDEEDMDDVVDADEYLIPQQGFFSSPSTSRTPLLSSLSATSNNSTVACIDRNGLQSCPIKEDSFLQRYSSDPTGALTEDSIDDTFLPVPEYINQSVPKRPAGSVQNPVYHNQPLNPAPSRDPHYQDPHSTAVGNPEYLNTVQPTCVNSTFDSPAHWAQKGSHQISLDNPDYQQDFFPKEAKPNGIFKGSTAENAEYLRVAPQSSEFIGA
# RUN_DESCRIPTION: EGFR degradation HTRF assay, BaF3-LTC cells
# Format: cell-based
# EXPERIMENTAL_CONDITIONS: BaF3-LTC cells; EGFR degradation, IC50 (DC50) from curve fit; read-out: DC50(nM) BaF3-LTC
DC50 strictly less than 10 nM = Fulfilled. Otherwise Not fulfilled.

[
  {
    "MOLECULE": "CCc1cc(Nc2ncc(Br)c(Nc3ccc4nc(C)ncc4c3P(C)(C)=O)n2)c(OC)cc1N1CCC(N2CCN(CCc3cc(F)c([C@H]4CCC(=O)NC4=O)c(F)c3)CC2)CC1 [Example 739]",
    "CLASS": "Fulfilled"
  },
  {
    "MOLECULE": "CCc1cc(Nc2ncc(Br)c(Nc3ccc4c(=O)n(C5CC5)ncc4c3P(C)(C)=O)n2)c(OC)cc1N1CCC(N2CCN(CCc3cc(F)c(C4CCC(=O)NC4=O)c(F)c3)CC2)CC1 (stereo not shown) [Example 521]",
    "CLASS": "Not fulfilled"
  },
  {
    "MOLECULE": "CCOc1cc(N2CCC(N3CCN(CCc4c(C)ccc5c4oc(=O)n5C4CCC(=O)NC4=O)CC3)CC2)c(CC)cc1Nc1ncc(Br)c(Nc2ccc3nc(CC)ccc3c2P(C)(C)=O)n1 (stereo not shown) [Example 634]",
    "CLASS": "Fulfilled"
  },
  {
    "MOLECULE": "CCOc1cc(N2CCC(N3CCN(CC4CN(c5cc(F)c([C@H]6CCC(=O)NC6=O)c(F)c5)C4)CC3)CC2)c(CC)cc1Nc1ncc(Br)c(Nc2ccc3nc(CC)ccc3c2P(C)(C)=O)n1 [Example 541]",
    "CLASS": "Not fulfilled"
  },
  {
    "MOLECULE": "CCc1cc(Nc2ncc(Br)c(Nc3ccc4c(=O)n(C)ncc4c3P(C)(C)=O)n2)c(OC)cc1N1CCC(N2CCN(CCc3cccc4c3C3(CC3)C(=O)N4C3CCC(=O)NC3=O)CC2)CC1 (stereo not shown) [Example 756]",
    "CLASS": "Fulfilled"
  },
  {
    "MOLECULE": "CCc1cc(Nc2ncc(Br)c(Nc3ccc4nc(C)ccc4c3P(C)(C)=O)n2)c(OC)cc1N1CCC(N2CCN(C(=O)[C@H]3CC[C@@H](Oc4cc(F)c(C5CCC(=O)NC5=O)c(F)c4)CC3)CC2)CC1 (stereo partly shown) [Example 681]",
    "CLASS": "Fulfilled"
  },
  {
    "MOLECULE": "CCOc1cc(N2CCC(N3CCN(CCc4cc(F)c(F)c5c4oc(=O)n5C4CCC(=O)NC4=O)CC3)CC2)c(CC)cc1Nc1ncc(Br)c(Nc2ccc3nc(CC)ccc3c2P(C)(C)=O)n1 (stereo not shown) [Example 474]",
    "CLASS": "Not fulfilled"
  },
  {
    "MOLECULE": "CCOc1cc(N2CCC(N3CCN(CCc4cc5oc(=O)n(C6CCC(=O)NC6=O)c5cc4F)CC3)CC2)c(CC)cc1Nc1ncc(Br)c(Nc2cc(F)c3nc(CC)ccc3c2P(C)(C)=O)n1 (stereo not shown) [Example 498]",
    "CLASS": "Fulfilled"
  },
  {
    "MOLECULE": "CCOc1cc(N2CCC(N3CCN(CCCc4cc(F)c([C@H]5CCC(=O)NC5=O)c(F)c4)CC3)CC2)c(CC)cc1Nc1ncc(Br)c(Nc2cc(F)c3nc(CC)ccc3c2P(C)(C)=O)n1 [Example 567]",
    "CLASS": "Not fulfilled"
  },
  {
    "MOLECULE": "CCOc1cc(N2CCC(N3CCN(CCc4c(F)ccc5c4n(CC)c(=O)n5C4CCC(=O)NC4=O)CC3)CC2)c(CC)cc1Nc1ncc(Br)c(Nc2ccc3c(=O)n(CC)ncc3c2P(C)(C)=O)n1 (stereo not shown) [Example 559]",
    "CLASS": "Not fulfilled"
  },
  {
    "MOLECULE": "CCOc1cc(N2CCC(N3CCN(CCc4cc(F)c([C@H]5CCC(=O)NC5=O)c(F)c4)CC3)CC2)c(CC)cc1Nc1ncc(Br)c(Nc2cc(F)c3nc(C)ccc3c2P(C)(C)=O)n1 [Example 534]",
    "CLASS": "Fulfilled"
  },
  {
    "MOLECULE": "CCOc1cc(N2CCC(N3CCN(CCc4c(F)ccc5c4n(CC)c(=O)n5C4CCC(=O)NC4=O)CC3)CC2)c(CC)cc1Nc1ncc(Br)c(Nc2ccc3c(=O)n(CC)ncc3c2P(C)(C)=O)n1 (stereo not shown) [Example 596]",
    "CLASS": "Fulfilled"
  },
  {
    "MOLECULE": "CCOc1cc(N2CCC(N3CCN(CCc4cc(F)c(C5CCC(=O)NC5=O)c(F)c4)CC3)CC2)c(CC)cc1Nc1ncc(Br)c(Nc2ccc3nc(C)ccc3c2P(C)(C)=O)n1 (stereo not shown) [Example 482]",
    "CLASS": "Not fulfilled"
  },
  {
    "MOLECULE": "CCOc1cc(N2CCC(N3CCN(CCc4ccc(F)c5c4n(CC)c(=O)n5C4CCC(=O)NC4=O)CC3)CC2)c(CC)cc1Nc1ncc(Br)c(Nc2ccc3c(=O)n(CC)ncc3c2P(C)(C)=O)n1 (stereo not shown) [Example 594]",
    "CLASS": "Not fulfilled"
  },
  {
    "MOLECULE": "CCc1cc(Nc2ncc(Br)c(Nc3ccc4nc(C)ccc4c3P(C)(C)=O)n2)c(OC)cc1N1CCC(N2CCN(CCC3CN(c4cccc5c4CN(C4CCC(=O)NC4=O)C5=O)C3)CC2)CC1 (stereo not shown) [Example 692]",
    "CLASS": "Fulfilled"
  },
  {
    "MOLECULE": "CCc1cc(Nc2ncc(Br)c(Nc3ccc4nc(C)ccc4c3P(C)(C)=O)n2)c(OC2CC2)cc1N1CCC(N2CCN(CCc3cccc4c3n(C)c(=O)n4C3CCC(=O)NC3=O)CC2)CC1 (stereo not shown) [Example 642]",
    "CLASS": "Fulfilled"
  },
  {
    "MOLECULE": "CCOc1cc(N2CCC(N3CCN(CCc4cc(F)c([C@H]5CCC(=O)NC5=O)c(F)c4)CC3)CC2)c(CC)cc1Nc1nccc(Nc2cc(F)c3nc(CC)ccc3c2P(C)(C)=O)n1 [Example 591]",
    "CLASS": "Not fulfilled"
  },
  {
    "MOLECULE": "CCc1ccc2c(P(C)(C)=O)c(Nc3nc(Nc4cc(C)c(N5CCC(N6CCN(CCc7cccc8c7n(C)c(=O)n8C7CCC(=O)NC7=O)CC6)CC5)cc4OC4CC4)ncc3Br)ccc2n1 (stereo not shown) [Example 584]",
    "CLASS": "Fulfilled"
  }
]
